tested on: HT-29; assay: NCI tumour cell line growth inhibition, 48 h
Active and inactive are the calls of the source. Cut-off read from the data, not from the text of the source: active = GI50 up to about 1.1 µM and inactive = higher.
Outcome measure: GI50

Data point: N#CC(=S)Nc1ccc(Cl)c(Cl)c1 ; GI50 = 21.1 µM (inactive)

Data point: N#CC1=C(O)NC(O)=C(C#N)C1c1c(Cl)cccc1Cl ; GI50 = 39.4 µM (inactive)

Data point: CC1(C)CC23C(=O)N(c4ccccc4)C(Nc4ccccc4)=NC2=CC(C#N)=C(C#N)C3O1 (stereo unspecified) ; GI50 = 26.9 µM (inactive)

Data point: C#CCN(Cc1ccc2nc(OC)c(OC)nc2c1)c1cc(OC)c(OC)c(OC)c1 ; GI50 = 21.8 µM (inactive)

Data point: CCOC(=O)C1(C/C=C/CBr)CCc2ccccc2C1=O (stereo unspecified) ; GI50 = 21.9 µM (inactive)
